# measurement target: FPR2 (Homo sapiens, UniProt P25090)
# Construct: expressed in transfected cells; host or cells: CHO-Ga16 cells stably expressing FPR2
# Sequence (P25090 1-351): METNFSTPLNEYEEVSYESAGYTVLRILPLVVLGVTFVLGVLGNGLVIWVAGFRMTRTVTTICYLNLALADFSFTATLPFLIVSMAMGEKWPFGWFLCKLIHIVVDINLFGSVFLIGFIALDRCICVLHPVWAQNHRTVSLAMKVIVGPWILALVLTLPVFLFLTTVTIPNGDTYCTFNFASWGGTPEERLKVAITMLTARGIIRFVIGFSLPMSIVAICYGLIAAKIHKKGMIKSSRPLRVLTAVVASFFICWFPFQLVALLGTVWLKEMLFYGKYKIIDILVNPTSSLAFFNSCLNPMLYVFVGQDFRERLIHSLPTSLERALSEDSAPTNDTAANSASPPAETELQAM
# protocol summary: compound-induced calcium activity on FLIPR Tetra in CHO-Ga16 cells stably expressing FPR2
# Type: cell-based
# condition label: efficacy value given as a fraction; CHO-Ga16 cells stably expressing FPR2; read-out: FPR2 Ga16-CHO (0.% eff) efficacy
Catalogue of Emax values

{"smiles": "CC(C)C[C@H](NC(=O)Nc1ccc(C(F)(F)F)cc1)C(=O)NCS(=O)(=O)O", "Emax [%]": 100}
{"smiles": "CCOP(=O)(O)CNC(=O)[C@H](Cc1ccccc1)NC(=O)Nc1ccc(Br)cc1", "Emax [%]": 110}
{"smiles": "CC(C)C[C@H](NC(=O)Nc1ccc(Br)cc1)C(=O)NCCc1nnn[nH]1", "Emax [%]": 100}
{"smiles": "CCOP(=O)(CNC(=O)[C@H](CC(C)C)NC(=O)Nc1ccc(Br)cc1)OCC", "Emax [%]": 100}
{"smiles": "CC(C)C[C@H](NC(=O)Nc1ccc(Br)cc1)C(=O)NCP(=O)(OC(C)C)OC(C)C", "Emax [%]": 100}
{"smiles": "CCC[C@H](NC(=O)Nc1ccc(Br)cc1)C(=O)NCP(=O)(OCC)OCC", "Emax [%]": 94}
{"smiles": "CC(C)C[C@H](NC(=O)Nc1ccc(Br)cc1)C(=O)NCS(=O)(=O)O", "Emax [%]": 91}
{"smiles": "CC(C)C[C@H](NC(=O)Nc1ccc(Br)cc1)C(=O)NCc1cc(O)no1", "Emax [%]": 100}
